studySystem: hNaMNAT-1 (Homo sapiens)
Sequence (Q9HAN9 whole entry): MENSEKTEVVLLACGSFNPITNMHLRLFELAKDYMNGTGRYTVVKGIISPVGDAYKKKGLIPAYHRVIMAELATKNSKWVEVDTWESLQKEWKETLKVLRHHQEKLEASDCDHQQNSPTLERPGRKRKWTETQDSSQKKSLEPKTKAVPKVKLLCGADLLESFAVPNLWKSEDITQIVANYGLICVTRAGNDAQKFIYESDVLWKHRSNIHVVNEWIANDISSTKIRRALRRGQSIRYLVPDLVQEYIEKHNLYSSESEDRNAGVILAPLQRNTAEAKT
runDescription: Human NAMNAT inhibition in vitro
Type: biochemical
Assign IC50 to each entry below.
One number for each entry, in µM.

These solved cases illustrate the format of a correct answer.
O=[N+]([O-])c1cc(S(=O)(=O)NCc2ccco2)ccc1NNC(=S)Nc1cccc(C(F)(F)F)c1: 28
O=C(Nc1ccc(O)cc1)Nc1ccc(S(=O)(=O)Nc2ccc(Cl)c(Cl)c2)cc1: 13

// molecule O=C(Nc1ccc(S(=O)(=O)Nc2ccc(Cl)c(Cl)c2)cc1)Nc1ccccc1O , assay hNaMNAT-1 (Homo sapiens), IC50 value: 19

* * *

studySystem: B. anthracis NADs (Bacillus anthracis, UniProt Q81RP3)
Sequence (Q81RP3 whole entry, looked up): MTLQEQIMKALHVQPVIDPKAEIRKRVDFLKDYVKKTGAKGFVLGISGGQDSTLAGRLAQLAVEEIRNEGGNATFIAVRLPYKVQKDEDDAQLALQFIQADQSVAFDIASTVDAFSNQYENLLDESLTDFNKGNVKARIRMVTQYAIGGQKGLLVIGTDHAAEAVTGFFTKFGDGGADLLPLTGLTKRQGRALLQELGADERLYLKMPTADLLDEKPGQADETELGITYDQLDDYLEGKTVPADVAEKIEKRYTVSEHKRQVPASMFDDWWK
Type: biochemical
settings: read-out: NADs IC50
Could you mark each record criterion met if its IC50 falls strictly under 200 µM, and criterion not met if it equals or exceeds it?

Record excerpt, results attached:
Cc1cc(-c2nnc(CSc3nnc(NC(=O)c4ccc(F)c(Cl)c4)s3)o2)ccc1[N+](=O)[O-]: criterion not met
COc1cccc(NC(=O)Nc2nnc(COc3ccc([N+](=O)[O-])cc3)s2)c1: criterion met
CCOC(=O)C1=C(Nc2cccc3ccccc23)S/C(=C\c2ccc([N+](=O)[O-])cc2)C1=O: criterion met

Quick check: does Cc1onc(-c2ccccc2)c1NC(=O)Nc1ccc(Oc2ncnc3cc(Cl)ccc23)nc1 have IC50 under 200 µM?
criterion not met

Quick check: does COc1ccc(NC(=O)Nc2cccc(NC(=O)Nc3ccc(OC)cc3)c2F)cc1 have IC50 under 200 µM?
criterion not met

Quick check: does O=C(Nc1cccc(/N=C/c2cc([N+](=O)[O-])ccc2O)c1)c1ccc(Cl)cc1Cl have IC50 under 200 µM?
criterion met
